Please respond with reported combination Emax for every item in the list.
- Tested on: LU-165 (Small Cell Lung Carcinoma)
- TEST_NAME: combination Emax (second highest fraction inhibited in the dose matrix, 72 h); higher = more inhibition; extreme values may be limits of the assay
Enter a number only.

For the record COc1cccc(OCCCN)c1-c1cc(Nc2cnc(C#N)cn2)n[nH]1 [Prexasertib] + C[C@@H]1COCCN1C2=NC(=NC(=C2)C3(CC3)[S@](=N)(=O)C)C4=C5C=CNC5=NC=C4 [AZD6738] (first compound max 1 µM, 7x7, partner max 10 µM) , what value of combination Emax is listed for LU-165 (Small Cell Lung Carcinoma)?
0.565

For the record Cn1cnc2c(F)c(Nc3ccc(Br)cc3Cl)c(C(=O)NOCCO)cc21 [Selumetinib] + C[C@@H]1COCCN1C2=NC(=NC(=C2)C3(CC3)[S@](=N)(=O)C)C4=C5C=CNC5=NC=C4 [AZD6738] (first compound max 10 µM, 7x7, partner max 10 µM) , what value of combination Emax is listed for LU-165 (Small Cell Lung Carcinoma)?
0.304

For the record C[C@@H](Nc1cc(F)cc(F)c1)c1cc(C(=O)N(C)C)cc2c(=O)cc(N3CCOCC3)oc12 [AZD8186] + CC(=O)c1c(C)c2cnc(Nc3ccc(N4CCNCC4)cn3)nc2n(C2CCCC2)c1=O [Palbociclib] (first compound max 10 µM, 7x7, partner max 10 µM) , what value of combination Emax is listed for LU-165 (Small Cell Lung Carcinoma)?
0.31

For the record CCc1c2c(nc3ccc(O)cc13)-c1cc3c(c(=O)n1C2)COC(=O)[C@]3(O)CC [SN-38] + O=C(c1cc(Cc2n[nH]c(=O)c3ccccc23)ccc1F)N1CCN(C(=O)C2CC2)CC1 [Olaparib] (first compound max 0.3 µM, 7x7, partner max 10 µM) , what value of combination Emax is listed for LU-165 (Small Cell Lung Carcinoma)?
0.478

Sourced from the supplement of paper PMC11061612
